protocolDetails: physchem
details: 25 °C, fessif, thermodynamic from solid
Is solubility at least 600 µg/mL? Then 1. If not, -1.

Query :: In plain terms: is recorded solubility at least 600 µg/mL for CN(C(=O)N(c1nn(CC(F)(F)F)c2c(-c3ccc(C#CC(C)(C)S(C)(=O)=O)nc3[C@H](Cc3cc(F)cc(F)c3)NC(=O)Cn3nc(C(F)(F)F)c4c3C(F)(F)[C@@H]3C[C@H]43)ccc(Cl)c12)S(C)(=O)=O)c1ncccc1COP(=O)(O)O ?
Result :: 1

Query :: Form field: solubility at least 600 µg/mL? Entry: CC(C)(Cc1ccccc1OP(=O)(O)O)C(=O)N(c1nn(CC(F)(F)F)c2c(-c3ccc(C#CC(C)(C)S(C)(=O)=O)nc3[C@H](Cc3cc(F)cc(F)c3)NC(=O)Cn3nc(C(F)(F)F)c4c3C(F)(F)[C@@H]3C[C@H]43)ccc(Cl)c12)S(C)(=O)=O
Result :: 1

Query :: Please check the record CC(C)(C#Cc1ccc(-c2ccc(Cl)c3c(N(C(=O)Cc4ccccc4OP(=O)(O)O)S(C)(=O)=O)nn(CC(F)(F)F)c23)c([C@H](Cc2cc(F)cc(F)c2)NC(=O)Cn2nc(C(F)(F)F)c3c2C(F)(F)[C@@H]2C[C@H]32)n1)S(C)(=O)=O and state if its solubility is at or above 600 µg/mL.
Result :: -1

Query :: Is it the case that CC(C)(C#Cc1ccc(-c2ccc(Cl)c3c(N(C(=O)Cc4ccc(OP(=O)(O)O)cc4)S(C)(=O)=O)nn(CC(F)(F)F)c23)c([C@H](Cc2cc(F)cc(F)c2)NC(=O)Cn2nc(C(F)(F)F)c3c2C(F)(F)[C@@H]2C[C@H]32)n1)S(C)(=O)=O has solubility reaching or exceeding 600 µg/mL?
Result :: 1

Query :: Assess whether reported solubility for Cc1cc(C)c(C(C)(C)CC(=O)N(c2nn(CC(F)(F)F)c3c(-c4ccc(C#CC(C)(C)S(C)(=O)=O)nc4[C@H](Cc4cc(F)cc(F)c4)NC(=O)Cn4nc(C(F)(F)F)c5c4C(F)(F)[C@@H]4C[C@H]54)ccc(Cl)c23)S(C)(=O)=O)c(OP(=O)(O)O)c1 sits at 600 µg/mL or higher.
Result :: 1

Query :: Dear colleague, could you confirm whether Cc1cc(C(=O)O)cc(OP(=O)(O)O)c1C(C)(C)CC(=O)N(c1nn(CC(F)(F)F)c2c(-c3ccc(C#CC(C)(C)S(C)(=O)=O)nc3[C@H](Cc3cc(F)cc(F)c3)NC(=O)Cn3nc(C(F)(F)F)c4c3C(F)(F)[C@@H]3C[C@H]43)ccc(Cl)c12)S(C)(=O)=O has solubility at or above 600 µg/mL?
Result :: -1

Query :: hey, is solubility for this one >= 600 µg/mL? CN(C(=O)N(c1nn(CC(F)(F)F)c2c(-c3ccc(C#CC(C)(C)S(C)(=O)=O)nc3[C@H](Cc3cc(F)cc(F)c3)NC(=O)Cn3nc(C(F)(F)F)c4c3C(F)(F)[C@@H]3C[C@H]43)ccc(Cl)c12)S(C)(=O)=O)c1ccccc1OP(=O)(O)O
Result :: -1

Query :: Tell me whether solubility is at least 600 µg/mL here: Cc1cc(CC(=O)O)cc(OP(=O)(O)O)c1C(C)(C)CC(=O)N(c1nn(CC(F)(F)F)c2c(-c3ccc(C#CC(C)(C)S(C)(=O)=O)nc3[C@H](Cc3cc(F)cc(F)c3)NC(=O)Cn3nc(C(F)(F)F)c4c3C(F)(F)[C@@H]3C[C@H]43)ccc(Cl)c12)S(C)(=O)=O
Result :: -1

Query :: Check if solubility >= 600 µg/mL (inclusive). Item: Cc1cc(CC(=O)O)c(C(C)(C)CC(=O)N(c2nn(CC(F)(F)F)c3c(-c4ccc(C#CC(C)(C)S(C)(=O)=O)nc4[C@H](Cc4cc(F)cc(F)c4)NC(=O)Cn4nc(C(F)(F)F)c5c4C(F)(F)[C@@H]4C[C@H]54)ccc(Cl)c23)S(C)(=O)=O)c(OP(=O)(O)O)c1
Result :: -1
